Reference source for all entries: patent US20190169286A1

Biological target: T1, human IL-8 (human, UniProt P10145 23-99, limits assumed)
T1 construct: also called hIL-8; hIL8
T1 sequence (P10145 23-99 limits assumed): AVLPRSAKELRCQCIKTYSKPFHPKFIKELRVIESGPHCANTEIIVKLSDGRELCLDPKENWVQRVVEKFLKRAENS
Test: SPR Biacore T200, Protein A/G capture, pH 5.8, 37C;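 also: antibodies captured by Protein A/G amine-coupled onto a CM4 sensor chip, with kinetic parameters derived using Biacore T200 Evaluation Software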
outcome-measure: koff (s⁻¹)
Form entry: value (s⁻¹) — number only.

{"binder": "H1046/L0395 (antibody, human IgG1, kappa, name in Kabat numbering, V domains shown) VH: QVQLVESGGGLVQPGGSLRLSCAASGFTFSEYYLSWVRQAPGKGLEWVGLIRNKDNYHHPEYSASVKGRFTISRDDSKNSLYLTMSDLKTEDTAVYYCARENHRYDVELAYWGQGTLVTVSS VL: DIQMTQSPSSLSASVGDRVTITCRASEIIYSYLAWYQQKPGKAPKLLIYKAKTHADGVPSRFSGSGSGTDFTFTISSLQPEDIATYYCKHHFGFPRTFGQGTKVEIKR", "koff (s⁻¹)": 0.012}

Next up:
get_value(item= H1040/L0395 (antibody, human IgG1, kappa, name in Kabat numbering, V domains shown) VH: QVQLVESGGGLVQPGGSLRLSCAASGFTFSEYYLSWVRQAPGKGLEWVGLIRNKDNHHHPEYSASVKGRFTISRDDSKNSLYLTMSDLKTEDTAVYYCARENHRYDVELAYWGQGTLVTVSS VL: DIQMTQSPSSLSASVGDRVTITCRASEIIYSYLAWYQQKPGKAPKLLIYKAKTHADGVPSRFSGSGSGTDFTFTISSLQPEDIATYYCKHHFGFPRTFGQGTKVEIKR , readout=koff) returns 0.046
